Entry source: the supplement of paper PMC11061612

- Test system: KE-37 (T-Lymphoblastic Leukemia);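 also: after 72 h of two-drug dosing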
- Test Description: Bliss excess, mean over the matrix (fraction); higher = more synergy
Attribute Measured: Bliss excess
Number only, please.

// query What reported Bliss excess corresponds to CN(C)CCCOc1ccc(-c2ccc3ncc4c(c3c2)n(C2CCOCC2)c(=O)n4C)cn1 [AZD0156] + CCN(CCO)CCCOc1ccc2c(Nc3cc(CC(=O)Nc4cccc(F)c4)[nH]n3)ncnc2c1 [AZD2811] (first compound max 1 µM, 7x7, partner max 1 µM) on KE-37 (T-Lymphoblastic Leukemia)?
// result -0.0173

// query What reported Bliss excess corresponds to COc1nnc2ccc(N3CCC(c4ccc(OCCN5CCN(C)C(=O)[C@H]5C)cc4)CC3)nn12 [AZD5153] + Cc1c2c(nn1C)CSCc1cc(n(C)n1)CSc1cc(c3ccccc3c1)OCCCc1c(C(=O)O)n(C)c3c-2c(Cl)ccc13 [AZD5991] (first compound max 1 µM, 7x7, partner max 1 µM) on KE-37 (T-Lymphoblastic Leukemia)?
// result 0.116

// query What reported Bliss excess corresponds to CCN(CCO)CCCOc1ccc2c(Nc3cc(CC(=O)Nc4cccc(F)c4)[nH]n3)ncnc2c1 [AZD2811] + C=CCn1c(=O)c2cnc(Nc3ccc(N4CCN(C)CC4)cc3)nc2n1-c1cccc(C(C)(C)O)n1 [AZD1775] (first compound max 1 µM, partner max 1 µM) on KE-37 (T-Lymphoblastic Leukemia)?
// result 0.0353

// query What reported Bliss excess corresponds to COc1nnc2ccc(N3CCC(c4ccc(OCCN5CCN(C)C(=O)[C@H]5C)cc4)CC3)nn12 [AZD5153] + CN(CC[C@H](CSC1=CC=CC=C1)NC2=C(C=C(C=C2)S(=O)(=O)NC(=O)C3=CC=C(C=C3)N4CCC(CC4)[C@H](C5=CC=CC=C5C6=CC=C(C=C6)Cl)O)S(=O)(=O)C(F)(F)F)CCO [AZD4320] (first compound max 1 µM, 7x7, partner max 1 µM) on KE-37 (T-Lymphoblastic Leukemia)?
// result 0.0222

// query What reported Bliss excess corresponds to Cc1cc2ncnn2cc1Nc1ncc2c(n1)n(C1CCOCC1)c(=O)n2C [AZD7648] + C[C@@H]1COCCN1C2=NC(=NC(=C2)C3(CC3)[S@](=N)(=O)C)C4=C5C=CNC5=NC=C4 [AZD6738] (first compound max 10 µM, 7x7, partner max 10 µM) on KE-37 (T-Lymphoblastic Leukemia)?
// result 0.0286

// query What reported Bliss excess corresponds to Cc1c2c(nn1C)CSCc1cc(n(C)n1)CSc1cc(c3ccccc3c1)OCCCc1c(C(=O)O)n(C)c3c-2c(Cl)ccc13 [AZD5991] + CC1(C)CCC(CN2CCN(c3ccc(C(=O)NS(=O)(=O)c4ccc(NCC5CCOCC5)c([N+](=O)[O-])c4)c(Oc4cnc5[nH]ccc5c4)c3)CC2)=C(c2ccc(Cl)cc2)C1 [Venetoclax] (first compound max 1 µM, 7x7, partner max 1 µM) on KE-37 (T-Lymphoblastic Leukemia)?
// result 0.0273

// query What reported Bliss excess corresponds to Cc1c2c(nn1C)CSCc1cc(n(C)n1)CSc1cc(c3ccccc3c1)OCCCc1c(C(=O)O)n(C)c3c-2c(Cl)ccc13 [AZD5991] + Cc1cc2ncnn2cc1Nc1ncc2c(n1)n(C1CCOCC1)c(=O)n2C [AZD7648] (first compound max 1 µM, 7x7, partner max 10 µM) on KE-37 (T-Lymphoblastic Leukemia)?
// result -0.0059
